src = patent US6486098B1

# System: ECHCG (Barnyard grass)
# assay: Leaf treatment test, barnyard grass
# Type: in vivo, Echinochloa crus-galli Beauv. var. caudata Kitagawa
# test.context: treated amount 0.025 kg/ha, leaf treatment at three leaves, 14 days after treatment
degree of damage to the plants (% damage) values for the molecules below.

- molecule: "CCN(C(=O)C(C)Oc1ccc(Oc2nc3ccc(Cl)cc3o2)cc1)c1ccccc1F (stereo not drawn)"
  result: "20%"

Hey, ECHCG (Barnyard grass) data for CC(Oc1ccc(Oc2nc3ccc(Cl)cc3o2)cc1)C(=O)N(C)c1c(F)cccc1F (stereo not drawn) : degree of damage to the plants (% damage) came out at 80%

Hey, ECHCG (Barnyard grass) data for CCOc1ccc(N(C)C(=O)C(C)Oc2ccc(Oc3nc4ccc(Cl)cc4o3)cc2)c(F)c1 (stereo not drawn) : degree of damage to the plants (% damage) came out at 0%

Hey, ECHCG (Barnyard grass) data for COc1ccc(N(C)C(=O)C(C)Oc2ccc(Oc3nc4ccc(Cl)cc4o3)cc2)c(F)c1 (stereo not drawn) : degree of damage to the plants (% damage) came out at 0%

Hey, ECHCG (Barnyard grass) data for Cc1ccc(F)c(N(C)C(=O)C(C)Oc2ccc(Oc3nc4ccc(Cl)cc4o3)cc2)c1 (stereo not drawn) : degree of damage to the plants (% damage) came out at 20%

Hey, ECHCG (Barnyard grass) data for CC(Oc1ccc(Oc2nc3ccc(Cl)cc3o2)cc1)C(=O)N(C)c1c(F)ccc(F)c1F (stereo not drawn) : degree of damage to the plants (% damage) came out at 95%
